# SYSTEM_UNDER_TEST: HLA-A*24 (human)
# METHOD_SUMMARY: UV-exchange ELISA (anti-b2m); yield 50%-75%

| BINDER | peptide exchange yield |
| --- | --- |
| IYQFVADSF | 50 to 75% |
| EYNEVANLF | 50 to 75% |
| KYLNENQLSQL | 50 to 75% |
| NYEDHFPLL | 50 to 75% |
